src = the supplement of paper PMC10567573

B1: ZER1 (parent)
chain: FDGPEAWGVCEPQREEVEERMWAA

# Variants of: B1
# Test Description: protein stability index of a GFP-peptide fusion (GPS, HEK-293T) (PSI 1-6); higher = more stable;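 note: lentivirally expressed fusions sorted by FACS into six bins by GFP to DsRed ratio, PSI derived from sequencing read proportions per bin multiplied by bin number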
# Condition Info: c terminus: a fixed tail appended
Endpoint Label: protein stability index
Respond using a number only.

Reference set, count: 10
> print(dat)
                         seq.string  meas.value
 1  FDGPEAWGVCEPQREEVEEEMWAA [R20E]        3.17
 2  FDGPEAWGVCEPQIEEVEERMWAA [R14I]        2.97
 3  FDGPEAWGVCEPQREEVEWRMWAA [E19W]        2.05
 4  FDGPEAWGVCEPQREEVEERMWRA [A23R]        2.61
 5  FDGPEAWGVCEPQREEVFERMWAA [E18F]         2.5
 6   FDGPEAPGVCEPQREEVEERMWAA [W7P]        4.52
 7  FDGPEAWGVCEPQREGVEERMWAA [E16G]        2.04
 8  FDGPEAWGVCEPQMEEVEERMWAA [R14M]        3.08
 9  FDGPEAWGVCEWQREEVEERMWAA [P12W]        3.81
10  FDGPEAWGVCEPQREEVEERMNAA [W22N]        3.17

Specify measured protein stability index for FDGPEAWGVCEPTREEVEERMWAA [Q13T] .
2.43

Specify measured protein stability index for FDGAEAWGVCEPQREEVEERMWAA [P4A] .
2.48

Specify measured protein stability index for FDGPEAWGVCEPQREEVHERMWAA [E18H] .
3.04

Specify measured protein stability index for FDGPEAWGVCEPDREEVEERMWAA [Q13D] .
2.92
